# Test system: MDA-MB-468 breast
# Assay notes: NCI-60 one-dose screen, 48 h
# Experimental setup: 10 µM unless noted
Compounds without any hit were thinned out: in the full panel of roughly 83,000, 20% have a hit. Calls of active or inactive are those of the source. Rule for the calls: active = growth percent below 10; inactive = the rest.
Classes used: T = active, F = inactive

{"Compound": "O=c1oc2ccc(Cl)cc2c(=O)n1-c1cc(C(F)(F)F)cc(C(F)(F)F)c1", "Classification": "T"}
{"Compound": "COC(=O)c1cc(N=C2NC(=O)/C(=C/C=C/c3ccccc3)S2)ccc1O", "Classification": "F"}
{"Compound": "COc1ccc(/C(C)=C(\\c2ccc(OCCN3CCOCC3)cc2)c2ccc(OC(=O)C3CCCCC3)cc2)cc1", "Classification": "F"}
{"Compound": "CCCCCCNC(=O)Oc1ccc(/C(=C(/CC)Cc2ccccc2)c2ccc(OCCN(CC)CC)cc2)cc1", "Classification": "F"}
{"Compound": "C#Cc1ccc(-n2c(/C=C/c3ccc(O)cc3)nc3ncccc3c2=O)cc1", "Classification": "T"}
{"Compound": "O=C(Oc1cccc2ccccc12)c1ccccc1C(=O)c1ccccc1", "Classification": "F"}
{"Compound": "Fc1ccc(/C=C/c2nc3ccccc3n3c(-c4ccc(Cl)cc4)nnc23)cc1", "Classification": "T"}
{"Compound": "CC(C)(C#N)N1CCN(c2ccccc2Cl)CC1", "Classification": "F"}
{"Compound": "O=S(=O)(O)C(Nc1ccccc1)c1ccccc1 (centres undefined)", "Classification": "F"}
{"Compound": "CN(Cc1ccccc1)c1ccc(SC#N)cc1", "Classification": "F"}
{"Compound": "C#Cc1ccc(-n2c(/C=C/c3ccc(C(F)(F)F)cc3)nc3ncccc3c2=O)cc1", "Classification": "T"}
{"Compound": "CCCCn1c(=O)c(/C=C/C(=O)/C=C/c2ccc(O)c(OC)c2)cc2ccc(Cl)cc21", "Classification": "F"}
{"Compound": "Cc1ccc2c3c(cccc13)-c1ccccc1C2=O", "Classification": "F"}
{"Compound": "Cc1ccc2c(c1)C(=O)/C(=C/c1ncc([N+](=O)[O-])n1C)O2", "Classification": "F"}
{"Compound": "Cn1cc(-c2csc(-c3c[nH]c4ccc(Br)cc34)n2)c2ccnc(Cl)c21", "Classification": "F"}
{"Compound": "O=C(NCc1ccco1)Nc1cccc2c(NC(=O)NCc3ccco3)cccc12", "Classification": "F"}
{"Compound": "COc1cc(C)cc2oc3oc(=O)c(-c4nc5ccccc5s4)cc3c(=O)c12", "Classification": "F"}
{"Compound": "CN(Cc1cccc(C(F)(F)F)c1)C(=O)[C@@H](CC(=O)N1CCC(N2CCCCC2)CC1)N1C(=O)[C@@H](N2C(=O)OC[C@@H]2c2ccccc2)[C@H]1/C=C/c1ccccc1", "Classification": "F"}
{"Compound": "O=c1cc(C(F)(F)F)[nH]c(=S)[nH]1", "Classification": "F"}
{"Compound": "NC(=O)NS(=O)(=O)c1ccc(N2N=C(C(F)(F)F)CC2c2cc(C(F)(F)F)cc(C(F)(F)F)c2)cc1 (centres undefined)", "Classification": "F"}
{"Compound": "COc1cc2c3c(n(CCCNC4CCCCC4)c(=O)c2cc1OC)-c1cc2c(cc1C3=O)OCO2", "Classification": "F"}
{"Compound": "O=C(C1=Cc2cc3ccccc3n2Cc2cnnn21)c1ccccc1", "Classification": "T"}
{"Compound": "C[C@]12C=CC(=O)C=C1CCC1C2[C@@H](O)C[C@@]2(C)C1CC[C@]2(O)C(=O)COC(=O)CCC(=O)O (some centres undefined)", "Classification": "F"}
{"Compound": "C=C1C(=O)O[C@H]2[C@H]1CC/C(COC(=O)NCc1cccc(OC)c1)=C\\CC[C@@]1(C)O[C@@H]21", "Classification": "T"}
{"Compound": "Brc1ccc2c(c1)c(-c1nc(-c3c[nH]c4ncccc34)cs1)cn2CCCN1CCCCC1", "Classification": "T"}
{"Compound": "CCOC(=O)c1c(C)nc2ccccc2c1/C=C/c1ccc(OC)cc1", "Classification": "F"}
{"Compound": "O=C(NC(=S)Nc1ccc(-c2nc3ccccc3[nH]2)cc1)c1ccc2ccccc2c1", "Classification": "F"}
{"Compound": "COc1cc2c(cc1OC)C(Sc1ccc(Cl)cc1)c1c(nc(N)c(C#N)c1N)O2 (centres undefined)", "Classification": "T"}
{"Compound": "C=CN(C(=O)N1CCN(c2cc3c(cc2F)c(=O)c(C(=O)O)cn3C2CC2)CC1)c1nc(-c2ccc(Cl)cc2)cs1", "Classification": "F"}
{"Compound": "O=C(/C=C(/C=C/c1ccc2[nH]ccc2c1)OB(F)F)/C=C/c1ccc2[nH]ccc2c1", "Classification": "T"}
{"Compound": "c1ccc2nc(N3CCOCC3)c(N3CCCCC3)nc2c1", "Classification": "F"}
{"Compound": "O=C1CCCC1[n+]1ccccc1 (centres undefined)", "Classification": "F"}
{"Compound": "O=C1NC(=O)C(c2coc3cc(Br)ccc23)=C1c1c[nH]c2ccccc12", "Classification": "T"}
{"Compound": "COc1ccc(Nc2nn3c(C)cc(C)nc3c2C(=O)Nc2ccc(C)cc2)c(OC)c1", "Classification": "F"}

Every entry's value here was drawn from PubChem BioAssay (NCI).
